procedure_text: yeast 75Q aggregation reduction – 75Q-TubU reporter (AID 1593)
recorded_conditions: Yeast 75Q polyglutamine aggregation reporter
observation_type: score

compound | observation_type | reading
CC(C)CC1NC(=O)CNC1=O (stereo unspecified) | score | 1.33
CC(C)[C@@H](C)/C=C/[C@@H](C)C1CC[C@H]2/C(=C/C=C3\C[C@@H](O)CC[C@@H]3C)CCC[C@]12C (stereo partly specified) | score | 0.42
CC(=O)C1CCC2C3CC=C4CC(OS(=O)(=O)O)CC[C@]4(C)C3CC[C@]12C (stereo partly specified) | score | 0.85
NC[C@@H]1O[C@H](O[C@@H]2[C@@H](CO)OC(O[C@@H]3[C@@H](O)[C@H](N)C[C@H](N)[C@H]3OC3O[C@H](CO)[C@@H](O)[C@H](O)[C@H]3N)[C@@H]2O)[C@H](N)[C@@H](O)[C@@H]1O (stereo partly specified) | score | 1.53
CCC(=O)OC1CCC2C3CCc4cc(O)ccc4C3CCC12C (stereo unspecified) | score | 0.64
CC(=O)OCC(=O)[C@@]1(O)CC[C@H]2C3CCC4=CC(=O)CCC4(C)[C@@]3(F)[C@@H](O)CC21C (stereo partly specified) | score | 1
CC(=O)N[C@@H](Cc1c[nH]c2ccccc12)C(N)=O | score | 1.31
CC(N)C(O)c1cccc(O)c1 (stereo unspecified) | score | 1.32
O[N+]1=CC=CCC1=S.On1ccccc1=S.[Zn] | score | 0.07
COc1cccc(C(=O)c2ccccc2O)c1O | score | 0.2
CCC(=O)O[C@@H](O[P@](=O)(CCCCc1ccccc1)CC(=O)N1C[C@H](C2CCCCC2)C[C@H]1C(=O)O)C(C)C | score | 0.97
C[C@@H]1OC(Oc2c(-c3ccc(O)c(O)c3)oc3cc(O)cc(O)c3c2=O)[C@H](O)[C@H](O)[C@H]1O (stereo partly specified) | score | 1.19
C[C@@H]1CC2C3C[C@H](F)C4=CC(=O)C=CC4(C)C3(F)[C@@H](O)CC2(C)C1C(=O)COC(=O)C(C)(C)C (stereo partly specified) | score | 0.1
NC[C@@H]1O[C@H](O[C@H]2[C@@H](O)[C@H](O[C@@H]3[C@@H](O)[C@H](N)C[C@H](N)[C@H]3O[C@@H]3O[C@H](CO)[C@@H](O)C[C@H]3N)O[C@@H]2CO)[C@H](N)[C@@H](O)[C@@H]1O[C@H]1O[C@H](CO)[C@@H](O)[C@H](O)[C@@H]1O | score | 1.7
CC(CNC(=O)c1ccccc1)C(=O)OCC(=O)[C@@]12OC(C)(C)O[C@@H]1CC1C3CCC4=CC(=O)C=C[C@]4(C)[C@@]3(F)[C@@H](O)C[C@@]12C (stereo partly specified) | score | 1.01
CC(=O)[C@H]1CCC2C3CC=C4C[C@@H](O)CC[C@]4(C)C3CC[C@@]21C (stereo partly specified) | score | 0.01

###

procedure_text: galactose survival enhancers in mitochondrial complex I cybrids – cell-based, galactose medium, ATP luminescence, primary screen (AID 1645843);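 further: positive z means more ATP and so rescue of galactose-driven cybrid death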
recorded_conditions: complex I mutant cybrid cells, 72 h
Calls of active or inactive are those of the source.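 The calls were made as follows: active = z-score of at least 1.8 in each of two replicates, scored against plate mean and spread of sample wells; inactive = the rest.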
Possible outcomes: class 1 = active, class 0 = inactive

compound | assigned_class
CO/N=C(\C(=O)N[C@@H]1C(=O)N2C(C(=O)[O-])=C(C[N+]3(C)CCCC3)CS[C@H]12)c1csc(N)n1 | class 0
COc1ccc(S(=O)(=O)N2CCN(S(=O)(=O)c3ccc4c(c3)OCCO4)CC2)cc1 | class 0
C=CC1=C(C(=O)O)N2C(=O)C(NC(=O)C(=NOCC(=O)O)c3csc(N)n3)C2SC1 (centres undefined) | class 0
O=C(O)/C(=C/c1c(C(=O)O)[nH]c2cc(Cl)cc(Cl)c12)c1ccccc1 | class 0
O=C(Nc1n[nH]c(-c2ccco2)n1)N1CCc2c([nH]c3ccccc23)C1 | class 0
Cc1csc(-c2cc(C(=O)N(C)C3CCN(C)CC3)cc(S(=O)(=O)N3CCOCC3)c2)c1 | class 0
CCn1cc(-c2cc(C(=O)N3CCCCCC3)c3ccc(C)c(C)c3n2)cn1 | class 1
O=C(O)[C@H]1NCCC[C@H]1C(=O)O | class 0
CC(C)Oc1cccc(C(=O)N2CCC(Cn3cc(C4CC4)nn3)CC2)c1 | class 0

###

tested_target: L-lactate dehydrogenase (Plasmodium falciparum (isolate CDC / Honduras))
procedure_text: PfLDH activity inhibition – cell lysate, 3D7 strain, counter-screen for P. falciparum growth inhibition project (AID 2304);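 further: 0% = vehicle and 100% = reference inhibitor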
recorded_conditions: P. falciparum 3D7 crude extract, LDH APAD/NBT absorbance; at 2 µM; stronger effect = higher value
Recorded inhibition, one value per entry.
observation_type: inhibition (%)

compound | observation_type | reading
COc1ccc(Nc2nc(NN=Cc3cc(Cl)ccc3O)nc(Nc3ccccc3)n2)cc1 | inhibition | 0
O=C(/C=C/c1ccc(Cl)c(Cl)c1)NCCCCCN1CC[C@H](c2c[nH]c3ccccc23)[C@H](O)C1 | inhibition | -5
Nc1cc(C=Cc2ccc(O)cc2)nc2ccccc12 | inhibition | 3
CCC[C@@H]([C@@H](CC(C)C)C(=O)N[C@@H](CCCCNC(=O)OCc1ccccc1)C(=O)Nc1ncccn1)N(O)C=O | inhibition | 4
CCCC[C@@H](C(=O)NCc1ccccc1C(F)(F)F)N1C(=O)CCC1C(=O)Nc1ccc([N+](=O)[O-])cc1 (stereo partly drawn) | inhibition | 0
C[C@@H]([C@@H](CCCc1ccc(Cl)cc1)C(=O)N[C@H](C(=O)Nc1cccnc1)C(C)(C)C)N(O)C=O | inhibition | 1
CC[C@H](C)[C@H](NC(=O)[C@H](CC1CCCCC1)[C@H](CC)N(O)C=O)C(=O)Nc1ccccn1 | inhibition | -1
CCN1CCN(c2cc(C)c3cc(NC(=O)c4ccc(C(C)(C)C)cc4)ccc3n2)CC1 | inhibition | -3

###

procedure_text: MELAS cybrid and Rieske KO viability enhancers – cell-based, MELAS cybrids, Rieske KO mouse fibroblasts, CellTiter-Glo, primary screen (AID 1508586);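 further: z relative to plate mean and SD of compound and empty wells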
recorded_conditions: Rieske KO mouse fibroblast survival, low glucose, CellTiter-Glo 72 h
observation_type: z-score

compound | reading
C=C1c2c(Cl)ccc(O)c2C(O)=C2C(=O)[C@]3(O)C(O)=C(C(N)=O)C(=O)[C@@H](N(C)C)[C@@H]3[C@@H](O)C12 (stereo not given in full) | -2.53
Cc1onc(-c2ccccc2)c1C(=O)N1CC(=O)N(Cc2ccccc2)CC(OCC2CC2)C1 (stereo not given) | -0.273
NCCCCCNCC12CC3CC(CC(C3)C1)C2 | -0.0827
O=C(O)c1ccc(-c2ccccc2Cl)o1 | 0.4
Cc1ccc(S(=O)(=O)N2CCN3C(=O)[C@H](Cc4ccc(Cl)cc4)NC(=O)[C@H]3C2)cc1 | -0.392
Cc1ccc(-c2cc(C(=O)NCc3c(C)nn(C)c3C)cc(S(=O)(=O)N3CCOCC3)c2)s1 | -0.219
CC(C)(Cc1ccc2ccccc2c1)NCC(O)COc1cccc(Cl)c1C#N (stereo not given) | 0.584
COc1ccc(S(=O)(=O)N(C(C)=O)c2ccccc2C=Cc2cc[n+]([O-])cc2)cc1 | -0.247
CN(C)Cc1cn(CC2CCN(C(=O)c3ccc4c(c3)OCO4)CC2)nn1 | -0.477
O=C(O)CC(O)CC(O)C=Cc1c(C2CC2)nc2ccccc2c1-c1ccc(F)cc1 (stereo not given) | -0.125
O=C(CSc1nc2c(c(=O)n1-c1ccccc1)SCC2)Nc1ccc(-c2ccccc2)cn1 | 0.404
O=C(C=Cc1ccc(O)cc1)c1ccc(O)cc1O | 0.414
CC(C)(C)OC(=O)NC1CCCCCC=CC2C[C@@]2(C(=O)NS(=O)(=O)C2CC2)NC(=O)C2CC(OC(=O)N3Cc4cccc(F)c4C3)CN2C1=O (stereo not given in full) | 0.469
C[C@]12CC[C@@H]3c4ccc(OS(=O)(=O)O)cc4CC[C@H]3[C@@H]1CCC2=O | -0.186
CNC(=C[N+](=O)[O-])NCCSCc1csc(CN(C)C)n1 | -0.0279
C=CCn1nc(C(=O)N2CCSCC2)c2c1CCC(N1CCOc3ccc(Cl)cc3C1)C2 (stereo not given) | -0.713
CCC(=O)O[C@@]1(C(=O)SCF)C(C)C[C@H]2[C@@H]3CC(F)C4=CC(=O)C=C[C@]4(C)[C@]3(F)C(O)C[C@@]21C (stereo not given in full) | -0.481
Cc1ccccc1CN1C2=NCCN2C(=O)C2=C1CCN(Cc1ccccc1)C2 | 0.0586
COc1ccc(CN2CC(OCc3cccnc3)CN(C(=O)C3=NN(C)C(=O)CC3)CC2=O)cc1 (stereo not given) | -0.34
O=C(C=Cc1ccc(O)c(O)c1)OCCc1ccccc1 | -2.25
CC(C)C1C(=O)NC(CCCN=C(N)N)C(=O)NCC(=O)NC(CC(=O)O)C(=O)NC(Cc2ccccc2)C(=O)N1C (stereo not given) | -0.232
CO/N=C(\C(=O)N[C@@H]1C(=O)N2C(C(=O)[O-])=C(C[N+]3(C)CCCC3)CS[C@H]12)c1csc(N)n1 | 0.0422
C[C@H]1NC(=O)NC1=O | -0.336
OCC(CO)NC1C[C@@](O)(CO)C(O)C(O)C1O (stereo not given in full) | -0.122
O=C(NCc1ccc(Oc2ccccc2)cc1)c1nc(-c2cc(Br)c(O)c(Br)c2)no1 | -0.275
COc1cc(CN2CCc3c(cc(Cc4ccccc4C)c(=O)n3CC3CC3)C2)ccc1O | -0.319
O=C(c1nn(Cc2ccncc2)c2c1CN(Cc1ccsc1)CC2)N1CCCC1 | 0.631
Cn1nc(NC(=O)Cn2cc(-c3nccc4occc34)cn2)c2ccccc21 | -0.242
COC(=O)CCSCc1ccc(-c2onc(C)c2NC(=O)OC(C)c2ccccc2Cl)cc1 (stereo not given) | -0.128
CC(C)(C)NC(=O)C1CC[C@H]2[C@@H]3CC[C@H]4NC(=O)C=C[C@]4(C)[C@@H]3CC[C@]12C (stereo not given in full) | 0.72
Cc1ccc(NS(=O)(=O)c2ccccc2)c(C(=O)O)c1 | -0.208
O=C1CN(c2ncnc3sccc23)CCN1Cc1cccc(F)c1 | 0.0557
CC1=C(C(=O)OC2CCCCC2)C(c2ccc([N+](=O)[O-])cc2)C2=C(CC(C)(C)CC2=O)N1 (stereo not given) | -2.79
CN1CCN(C(=O)c2cc3cc(Cl)ccc3[nH]2)CC1 | -0.0205
OCC1OC(Oc2ccc(O)cc2)C(O)C(O)C1O (stereo not given) | 0.468
CC(=O)OCC(=O)[C@]1(O)CC[C@H]2[C@@H]3CCC4=CC(=O)CC[C@]4(C)[C@@H]3C(=O)C[C@@]21C | -0.073
Cc1ccc(NC(=O)c2ccc(CN3CCN(C)CC3)cc2)cc1Nc1nc(-c2cccnc2)cs1 | 0.938
NC(=O)CCCSc1nc(N)nc(-c2c(Cl)cc3c4c(cccc24)COC3)n1 | -2.67
Cc1cnc(NC(=O)Nc2cc(Br)c(C)cc2OCC2CNCCO2)cn1 (stereo not given) | -0.0359
O=C1Nc2ccc(I)cc2C1=Cc1cc(Br)c(O)c(Br)c1 | -0.283

Entry source: PubChem BioAssay
